- System: P. mirabilis 1
- protocol_summary: In vitro antibacterial activity, two-fold agar-plate dilution method (MIC), P. mirabilis 1
- Format: cell-based
- study_conditions: Proteus mirabilis, heart infusion agar, 37° C., 20 hours, read-out: MIC (minimal inhibitory concentration)
The reader will find reported MIC values listed item by item below.
Respond with the bare value in µg/mL.

# annotated cases, reported MIC shown
molecule="Nc1nc(/C(=N/OC2CC2(Cl)Cl)C(=O)N[C@@H]2C(=O)N3C(C(=O)[O-])=C(C[n+]4ccccc4)CS[C@H]23)cs1 (stereo partly shown)" value_kind=MIC display_unit=µg/mL value_measured=1.56
molecule=Nc1nc(/C(=N/OC2CC2)C(=O)N[C@@H]2C(=O)N3C(C(=O)[O-])=C(C[n+]4ccccc4)CS[C@H]23)cs1 value_kind=MIC display_unit=µg/mL value_measured=0.1

Consider the record given below.
// recorded MIC for `Nc1nc(/C(=N/OC2CC2)C(=O)N[C@@H]2C(=O)N3C(C(=O)O)=C(CSc4nncs4)CS[C@H]23)cs1` : 0.05

---

- System: P. mirabilis 1
- protocol_summary: In vitro antibacterial activity, two-fold agar-plate dilution method (MIC), P. mirabilis 1
- Format: cell-based
- study_conditions: Proteus mirabilis, heart infusion agar, 37° C., 20 hours, read-out: MIC (minimal inhibitory concentration)
value_kind: MIC (µg/mL)
Lab book: enter the figure in µg/mL, no units written.

Here are 2 compounds together with their reported answers.
compound=Nc1nc(/C(=N/OC2CC2)C(=O)N[C@@H]2C(=O)N3C(C(=O)[O-])=C(C[n+]4ccccc4)CS[C@H]23)ns1 target_desc="P. mirabilis 1" value_kind=MIC display_unit=µg/mL value_measured=0.2
compound=Cn1c(SCC2=C(C(=O)O)N3C(=O)[C@@H](NC(=O)/C(=N\OC4CC4)c4csc(N)n4)[C@H]3SC2)n[nH]c(=O)c1=O target_desc="P. mirabilis 1" value_kind=MIC display_unit=µg/mL value_measured=0.05

Next:
The reported MIC of the compound Nc1nc(/C(=N/OC2CC2Cl)C(=O)N[C@@H]2C(=O)N3C(C(=O)O)=C(CSc4nncs4)CS[C@H]23)cs1 (single isomer, unassigned) was 0.2

---

Overview of reported MIC across a group of molecules:
- Tested on: P. mirabilis 1
- protocol_summary: In vitro antibacterial activity, two-fold agar-plate dilution method (MIC), P. mirabilis 1
- Assay type: cell-based
- study_conditions: Proteus mirabilis, heart infusion agar, 37° C., 20 hours, read-out: MIC (minimal inhibitory concentration)
Answer with a number only, understood to be in µg/mL.

MIC for `Nc1nc(/C(=N/OC2CC2)C(=O)N[C@@H]2C(=O)N3C(C(=O)O)=C(CSc4ncns4)CS[C@H]23)cs1` is 0.05

Reported MIC of `Nc1nc(/C(=N/OC2CC2)C(=O)N[C@@H]2C(=O)N3C(C(=O)O)=C(CSc4ccc5nnnn5n4)CS[C@H]23)cs1` : 0.1

Kindly note the recorded MIC for `Nc1nc(/C(=N/OC2CC2)C(=O)N[C@@H]2C(=O)N3C(C(=O)O)=C(CSc4cnns4)CS[C@H]23)cs1` , which is 0.1

For this molecule ( `CC(=O)OCC1=C(C(=O)O)N2C(=O)[C@@H](NC(=O)/C(=N\OC3CC3)c3csc(N)n3)[C@H]2SC1` ), measured MIC is 0.05
